Fbg listing for selected compounds.
Species on record: Rattus norvegicus
Assay: Open TG-GATES - Regimen: Single
Assay type: toxicity, organism-based, Sprague-Dawley
Set-up: regimen Single, gender Male, age 6 weeks
Details: in vivo, po, 0 mg/kg, 3 h, tissue Blood, route gavage, dose level Control
measurement kind: Fbg (mg/dL)

CN1C(=O)OC(C)(C)C1=O : 261
CCSCC[C@H](N)C(=O)O : 216.6
CCC(C)(C)C(=O)O[C@H]1C[C@@H](C)C=C2C=C[C@H](C)[C@H](CC[C@@H]3C[C@@H](O)CC(=O)O3)[C@H]21 : 216.8

---

BUN listing for selected compounds.
Organism: Rattus norvegicus
Test: Open TG-GATES - Regimen: Single
Type: toxicity, organism-based, Sprague-Dawley
Parameters: regimen Single, gender Male, age 6 weeks
Conditions: in vivo, po, 0 mg/kg, 24 h, tissue Plasma, route gavage, dose level Control
measurement kind: BUN (mg/dL)

O=C(O)c1cccnc1 : 15.6
Nc1nc(N)c2nc(-c3ccccc3)c(N)nc2n1 : 15
CCC(C)(C)C(=O)O[C@H]1C[C@@H](C)C=C2C=C[C@H](C)[C@H](CC[C@@H]3C[C@@H](O)CC(=O)O3)[C@H]21 : 18.6
C[C@]12CCC(=O)C=C1CC[C@@H]1[C@@H]2CC[C@@]2(C)[C@H]1CC[C@]2(C)O : 14.8
C#C[C@]1(O)CC[C@H]2[C@@H]3CCc4cc(O)ccc4[C@H]3CC[C@@]21C : 13.8
CC(=N)S [THIOACETAMIDE] : 17.2
CCN1CCCC1CNC(=O)c1cc(S(N)(=O)=O)ccc1OC (configuration not stated) [SULPIRIDE] : 14.6
CC(=O)Oc1cc(C(C)C)c(OCCN(C)C)cc1C : 18.4
C[C@](N)(Cc1ccc(O)c(O)c1)C(=O)O : 13
CC(C)C(=O)Nc1ccc([N+](=O)[O-])c(C(F)(F)F)c1 [FLUTAMIDE] : 14.2
CC(C)(S)[C@@H](N)C(=O)O : 13.2
CN1C(=O)OC(C)(C)C1=O : 15

---

Organism: Rattus norvegicus
Assay: Open TG-GATES - Regimen: Daily Repeat
Assay type: toxicity, organism-based, Sprague-Dawley
Parameters: regimen Daily Repeat, gender Male, age 6 weeks
Conditions: in vivo, po, 0 mg/kg, […], tissue Blood, route gavage, dose level Control, time 7 day
measurement kind: Lym (%)

CCSCC[C@H](N)C(=O)O : 79
Oc1ncnc2[nH]ncc12 : 77.8
CCC(C)(C)C(=O)O[C@H]1C[C@@H](C)C=C2C=C[C@H](C)[C@H](CC[C@@H]3C[C@@H](O)CC(=O)O3)[C@H]21 : 78.6
CCc1oc2ccccc2c1C(=O)c1cc(I)c(O)c(I)c1 : 77.8
CCN1CCCC1CNC(=O)c1cc(S(N)(=O)=O)ccc1OC (configuration not stated) [SULPIRIDE] : 82
CC(=O)Oc1cc(C(C)C)c(OCCN(C)C)cc1C : 81.4
C[C@](N)(Cc1ccc(O)c(O)c1)C(=O)O : 75

---

Organism: Rattus norvegicus
Test: Open TG-GATES - Regimen: Daily Repeat
Assay type: toxicity, organism-based, Sprague-Dawley
Set-up: regimen Daily Repeat, gender Male, age 6 weeks
Settings: in vivo, po, 0 mg/kg, […], tissue Kidney, route gavage, dose level Control, time 7 day
KIDNEY_L listing for selected compounds.
measurement kind: KIDNEY_L (g)

CC(C)C(=O)Nc1ccc([N+](=O)[O-])c(C(F)(F)F)c1 [FLUTAMIDE] : 1.1
CC(C)(S)[C@@H](N)C(=O)O [PENICILLAMINE] : 1.1
CC(=N)S [THIOACETAMIDE] : 1.1
CN1C(=O)OC(C)(C)C1=O [TRIMETHADIONE] : 1.1
CCc1oc2ccccc2c1C(=O)c1cc(I)c(O)c(I)c1 [BENZIODARONE] : 1.1
C[C@](N)(Cc1ccc(O)c(O)c1)C(=O)O [METHYLDOPA] : 1
Nc1nc(N)c2nc(-c3ccccc3)c(N)nc2n1 : 1.2

---

Species: Rattus norvegicus
Test: Open TG-GATES - Regimen: Single
Type: toxicity, organism-based, Sprague-Dawley
Parameters: regimen Single, gender Male, age 6 weeks
Details: in vivo, po, 0 mg/kg, 24 h, tissue Plasma, route gavage, dose level Control
measurement kind: IP (mg/dL)

C[C@]12CCC(=O)C=C1CC[C@@H]1[C@@H]2CC[C@@]2(C)[C@H]1CC[C@]2(C)O : 8.1
Nc1nc(N)c2nc(-c3ccccc3)c(N)nc2n1 : 8.2
CN1C(=O)OC(C)(C)C1=O : 7.8
CCSCC[C@H](N)C(=O)O : 8.1

---

Species: Rattus norvegicus
Test: Open TG-GATES - Regimen: Daily Repeat
Type: toxicity, organism-based, Sprague-Dawley
Parameters: regimen Daily Repeat, gender Male, age 6 weeks
Conditions: in vivo, po, 0 mg/kg, […], tissue Plasma, route gavage, dose level Control, time 28 day
GLC listing for selected molecules.
measurement kind: GLC

Oc1ncnc2[nH]ncc12 : 186 mg/dL
CC(C)C(=O)Nc1ccc([N+](=O)[O-])c(C(F)(F)F)c1 [FLUTAMIDE] : 226.2 mg/dL
CC(C)(S)[C@@H](N)C(=O)O : 185 mg/dL

---

Organism: Rattus norvegicus
Test: Open TG-GATES - Regimen: Daily Repeat
Type: toxicity, organism-based, Sprague-Dawley
Set-up: regimen Daily Repeat, gender Male, age 6 weeks
Details: in vivo, po, 0 mg/kg, […], tissue Plasma, route gavage, dose level Control, time 28 day
IP listing for selected compounds.
measurement kind: IP (mg/dL)

O=C(N[C@H](CO)[C@H](O)c1ccc([N+](=O)[O-])cc1)C(Cl)Cl : 6.2
CCSCC[C@H](N)C(=O)O : 7.1
CC(C)(S)[C@@H](N)C(=O)O : 6
CC(=O)Oc1cc(C(C)C)c(OCCN(C)C)cc1C : 6.9

---

KIDNEY_L listing for selected compounds.
Species on record: Rattus norvegicus
Test: Open TG-GATES - Regimen: Daily Repeat
Type: toxicity, organism-based, Sprague-Dawley
Parameters: regimen Daily Repeat, gender Male, age 6 weeks
Settings: in vivo, po, 0 mg/kg, 72 h, tissue Kidney, route gavage, dose level Control, time 3 day
measurement kind: KIDNEY_L (g)

CCc1oc2ccccc2c1C(=O)c1cc(I)c(O)c(I)c1 [BENZIODARONE] : 1.1
C#C[C@]1(O)CC[C@H]2[C@@H]3CCc4cc(O)ccc4[C@H]3CC[C@@]21C [ETHINYL ESTRADIOL] : 0.9
CC(=N)S [THIOACETAMIDE] : 1
C[C@](N)(Cc1ccc(O)c(O)c1)C(=O)O [METHYLDOPA] : 0.9
Oc1ncnc2[nH]ncc12 [ALLOPURINOL] : 1

---

Species on record: Rattus norvegicus
Assay: Open TG-GATES - Regimen: Single
Format: toxicity, organism-based, Sprague-Dawley
Design: regimen Single, gender Male, age 6 weeks
Details: in vivo, po, 0 mg/kg, 24 h, tissue Blood, route gavage, dose level Control
measurement kind: Hb

CN1C(=O)OC(C)(C)C1=O : 13.1 g/dL
O=C(O)c1cccnc1 : 13.2 g/dL
Oc1ncnc2[nH]ncc12 : 13.4 g/dL
CCN1CCCC1CNC(=O)c1cc(S(N)(=O)=O)ccc1OC (centres undefined) [SULPIRIDE] : 13.3 g/dL
O=C(N[C@H](CO)[C@H](O)c1ccc([N+](=O)[O-])cc1)C(Cl)Cl : 13 g/dL
Nc1nc(N)c2nc(-c3ccccc3)c(N)nc2n1 : 14 g/dL
C[C@](N)(Cc1ccc(O)c(O)c1)C(=O)O : 13 g/dL
CCc1oc2ccccc2c1C(=O)c1cc(I)c(O)c(I)c1 : 13.3 g/dL
CC(=N)S [THIOACETAMIDE] : 13.3 g/dL

---

Species on record: Rattus norvegicus
Experiment: Open TG-GATES - Regimen: Single
Assay type: toxicity, organism-based, Sprague-Dawley
Parameters: regimen Single, gender Male, age 6 weeks
Details: in vivo, po, 0 mg/kg, 3 h, tissue Blood, route gavage, dose level Control
measurement kind: WBC

Nc1nc(N)c2nc(-c3ccccc3)c(N)nc2n1 : 92.6 x10_2/uL
CC(=N)S [THIOACETAMIDE] : 120.6 x10_2/uL
O=C(N[C@H](CO)[C@H](O)c1ccc([N+](=O)[O-])cc1)C(Cl)Cl [CHLORAMPHENICOL] : 80.9 x10_2/uL
CCC(C)(C)C(=O)O[C@H]1C[C@@H](C)C=C2C=C[C@H](C)[C@H](CC[C@@H]3C[C@@H](O)CC(=O)O3)[C@H]21 [SIMVASTATIN] : 114.1 x10_2/uL

---

A/G listing for selected molecules.
Organism: Rattus norvegicus
Experiment: Open TG-GATES - Regimen: Single
Format: toxicity, organism-based, Sprague-Dawley
Set-up: regimen Single, gender Male, age 6 weeks
Conditions: in vivo, po, 0 mg/kg, 6 h, tissue Plasma, route gavage, dose level Control
measurement kind: A/G

O=C(N[C@H](CO)[C@H](O)c1ccc([N+](=O)[O-])cc1)C(Cl)Cl : 0.9
CCSCC[C@H](N)C(=O)O : 1.5
CC(=N)S [THIOACETAMIDE] : 2.4
CCN1CCCC1CNC(=O)c1cc(S(N)(=O)=O)ccc1OC (configuration not stated) [SULPIRIDE] : 0.9
CN1C(=O)OC(C)(C)C1=O : 0.9
Nc1nc(N)c2nc(-c3ccccc3)c(N)nc2n1 : 0.9
CCc1oc2ccccc2c1C(=O)c1cc(I)c(O)c(I)c1 : 2.2
